test system: Leishmania infantum amastigotes (MHOM/ET 67); assay: Antileishmanial activity, amastigotes in primary peritoneal mouse macrophages; assay type: cell-based; conditions: Leishmania infantum, Macrophage; intracellular amastigotes, 120 h; TDR hit criterion <0.5 μg/mL; read-out: L. infantum IC50
EXPERIMENTAL ENDPOINT: IC50

>>> print(df.to_string())
                                   compound  observed_result
0  CC(C)=CCC/C(C)=C/CC/C(C)=C/CC/C(C)=C/Cn1cnc2ncnc(N)c21 [Compound 4a]       > 26 µg/mL
1  CC(C)=CCC/C(C)=C/CC/C(C)=C/CC/C(C)=C/Cn1cc[n+](C)c1 [Compound 5]     < 0.11 µg/mL
2  CC(C)=CCC/C(C)=C/CC/C(C)=C/CC/C(C)=C/Cn1cnc2ncnc(NOCc3ccccc3)c21 [Compound 4c]       > 33 µg/mL
3  CONc1ncnc2ncn(C/C=C(\C)CC/C=C(\C)CC/C=C(\C)CCC=C(C)C)c12 [Compound 4b]       > 28 µg/mL
4  CC(C)=CCC/C(C)=C\CC/C(C)=C/C[n+]1cn(C)c2ncnc(N)c21 [Compound 2a]       > 26 µg/mL
5  CC(C)=CCC/C(C)=C/CC/C(C)=C/CC/C(C)=C/Cn1cnc2c(N)ncnc21 [Compound 3f, 9-Geranylgeranyladenine]       > 29 µg/mL
6  CC1=C(CC/C(C)=C/CC/C(C)=C/Cn2cnc3c2C(=N)N(C)CN3C)C(C)(C)CCC1 [Compound 9]       > 28 µg/mL
7  CC(C)=CCC/C(C)=C/CC/C(C)=C/CC/C(C)=C/C[n+]1cnc2c(ncn2C)c1N [Compound 7]       > 32 µg/mL

* * *

test system: T. cruzi Tulahuen CL2 strain (nifurtimox-sensitive); experiment: Antitrypanosomal activity, T. cruzi on MRC-5 cells, β-galactosidase readout; assay type: cell-based, Trypanosoma cruzi; settings: Trypanosoma cruzi, TULAHUEN, MRC5, 168 h, read-out: T. cruzi IC50
EXPERIMENTAL ENDPOINT: IC50 (µg/mL)

In [3]: df
Out[3]:
                                   compound                               test_system  experimental_endpoint  rel  observed_result
0  CC(C)=CCC/C(C)=C/CC/C(C)=C/CC/C(C)=C/Cn1cnc2c1c(=N)ncn2C [Compound 8]  T. cruzi Tulahuen CL2 strain (nifurtimox-sensitive)                   IC50    =             0.19
1  CO/N=c1\[n-]cnc2c1[n+](C/C=C(\C)CCCC(C)CCCC(C)CCCC(C)C)cn2C (stereo not drawn) [Compound 1j]  T. cruzi Tulahuen CL2 strain (nifurtimox-sensitive)                   IC50    <             0.11
2  CC(C)=CCC/C(C)=C/CC/C(C)=C/CC/C(C)=C/C[n+]1cn(CCC#N)c2nc[n-]/c(=N\OCc3ccccc3)c21 [Compound 1h]  T. cruzi Tulahuen CL2 strain (nifurtimox-sensitive)                   IC50    =                3
3  CO/N=c1\[n-]cnc2c1[n+](C/C=C(\C)CC/C=C(\C)CC/C=C(\C)CCC=C(C)C)cn2CCC#N [Compound 1g]  T. cruzi Tulahuen CL2 strain (nifurtimox-sensitive)                   IC50    =             0.81
4  CC(C)=CCC/C(C)=C/CC/C(C)=C/CC/C(C)=C/C[n+]1cn(C)c2nc[n-]/c(=N\OC(C)(C)C)c21 [Compound 1f]  T. cruzi Tulahuen CL2 strain (nifurtimox-sensitive)                   IC50    <             0.12
5  CC(C)=CCC/C(C)=C/CC/C(C)=C/CC/C(C)=C/Cn1c[n+](C)c2ccccc21 [Compound 6]  T. cruzi Tulahuen CL2 strain (nifurtimox-sensitive)                   IC50    <             0.12
6  CC(C)=CCC/C(C)=C\CC/C(C)=C/C[n+]1cn(C)c2nc[n-]/c(=N\OCc3ccccc3)c21 [Compound 1c]  T. cruzi Tulahuen CL2 strain (nifurtimox-sensitive)                   IC50    <             0.11
7  CC1=C(CC/C(C)=C/CC/C(C)=C/Cn2cnc3c2C(=N)N(C)CN3C)C(C)(C)CCC1 [Compound 9]  T. cruzi Tulahuen CL2 strain (nifurtimox-sensitive)                   IC50    =              3.2
8  C=C1CC[C@@H]2C(C)(C)CCC[C@@]2(C)[C@@H]1CC/C(C)=C/Cn1c[n+](C)c2ncnc(N)c21 [Compound 2c, agelasine D]  T. cruzi Tulahuen CL2 strain (nifurtimox-sensitive)                   IC50    =              4.5
